Listed here are compounds together with their documented IC50.
TARGET ENTITY: COX-2 (UniProt P35354)
Sequence (P35354 1-604): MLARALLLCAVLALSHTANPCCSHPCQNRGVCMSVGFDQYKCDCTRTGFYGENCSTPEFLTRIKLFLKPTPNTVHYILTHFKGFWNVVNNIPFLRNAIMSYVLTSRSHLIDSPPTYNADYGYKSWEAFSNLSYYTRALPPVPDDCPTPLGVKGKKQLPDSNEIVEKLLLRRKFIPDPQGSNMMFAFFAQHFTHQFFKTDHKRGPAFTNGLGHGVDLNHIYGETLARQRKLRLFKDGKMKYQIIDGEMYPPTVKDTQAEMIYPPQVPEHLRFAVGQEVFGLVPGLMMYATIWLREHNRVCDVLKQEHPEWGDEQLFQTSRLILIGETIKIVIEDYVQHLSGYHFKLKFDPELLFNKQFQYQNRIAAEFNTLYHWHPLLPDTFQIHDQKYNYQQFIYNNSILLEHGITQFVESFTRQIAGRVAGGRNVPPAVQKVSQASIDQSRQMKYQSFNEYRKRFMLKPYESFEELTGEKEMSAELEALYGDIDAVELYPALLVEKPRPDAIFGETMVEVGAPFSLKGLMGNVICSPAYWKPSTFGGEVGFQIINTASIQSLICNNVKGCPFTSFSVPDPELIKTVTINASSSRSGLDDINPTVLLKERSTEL
PROTOCOL DESCRIPTION: Assay for COX-2 activity (PGE2 ELISA)
COND: read-out: COX-2 IC50; 10–20 minutes pre-incubation, reaction stopped after ten minutes, pH 8.0
Field: numeric (µM). Do not append units.

O=C(O)C1=Cc2cc(S(=O)(=O)NCc3ccccc3)ccc2OC1C(F)(F)F (centres unmarked) ... 31

// IC50 value for O=C(O)C1=Cc2cc(Cl)cc(F)c2OC1C(F)(F)F (centres unmarked) : 74

The measured values listed here are drawn from patent US7138411B2.
